target or system: DRB5*0101 (DR2w2β2)
measurement protocol: binding to purified HLA
pIC50: −log10 of the molar value.
experimental readout: pIC50

NGIEWAIANNMDVIN [BPN' Y217L .109] :: 5.99

(1) SYPARYANAMAVGAT [B. lentus .160]
(2) GTVAALNNSIGVLGV [BPN' Y217L .70]
Query: // compare: 1 vs 2 , metric pIC50, want the smaller Let me know the label of the one you choose.
Result: 2
(2: 4.80, 1: 5.76)
